target entity: human GLP-1 receptor (human, UniProt P43220 24-463)
assay info: cell-based or functional assay
Positions of bridges follow the written chain, without caps; N, C: chain ends. Non-standard residues stand in square brackets, D forms with d. No end group written: not given here. Aib = CC(C)(N)C(=O)O
Just a reminder that ties go to no: only In vitro activity relative to native peptide (%), vs. GLP-1 (cAMP EC50) strictly below 20% counts as yes.

[[record]]
binder = "H[Aib]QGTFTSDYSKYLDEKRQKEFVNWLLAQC (bridge 16-20) [trigonal agonist of SEQ ID NO: 56]"
label_class = "no"

[[record]]
binder = "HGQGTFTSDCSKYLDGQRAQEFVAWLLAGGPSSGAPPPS [trigonal agonist of SEQ ID NO: 47]"
label_class = "yes"

[[record]]
binder = "Y[Aib]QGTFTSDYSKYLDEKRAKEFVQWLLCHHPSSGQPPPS (bridge 16-20) [trigonal agonist of SEQ ID NO: 95]"
label_class = "yes"


Lab note: confirm whether the reported In vitro activity relative to native peptide (%), vs. GLP-1 (cAMP EC50) for this binder is below 20%, equality not counting. binder: H[Aib]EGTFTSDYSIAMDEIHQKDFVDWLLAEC (bridge 16-20) [trigonal agonist of SEQ ID NO: 54]
no

Strictly below 20%: is that where In vitro activity relative to native peptide (%), vs. GLP-1 (cAMP EC50) of H[Aib]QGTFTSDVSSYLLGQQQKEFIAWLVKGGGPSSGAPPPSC [trigonal agonist of SEQ ID NO: 5] sits?
no

Would you kindly verify if In vitro activity relative to native peptide (%), vs. GLP-1 (cAMP EC50) of H[Aib]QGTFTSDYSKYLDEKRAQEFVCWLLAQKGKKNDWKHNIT [trigonal agonist of SEQ ID NO: 28] is strictly less than 20%?
yes
